meta.source: ChEMBL document CHEMBL3507680

Exercise: state measured cytotoxicity at 70.5 h for each of the molecules provided.
Assay: Human HepG2 cell viability assay in 384 well format
Assay type: toxicity, cell-based
Set-up: dose 125 nL, time 70.5 hour; concentration not given beside the values
Conditions: HepG2 cells, read-out: Inhibition
The reply must contain the numeric value and, after it, the unit.

Exam item: // lookup cytotoxicity at 70.5 h for Cc1c(Cl)c(C(=O)NC(C)CN2CCOCC2)nn1C (configuration not stated)
Marked response: 6.43%

Exam item: // lookup cytotoxicity at 70.5 h for "CCN(CC)CCCNCc1cc2cc(C)cc(C)c2[nH]c1=O"
Marked response: 3.4%

Exam item: // lookup cytotoxicity at 70.5 h for "COc1ccc2cc(C(=O)N3CC[C@H](CO)[C@H](O)C3)n(C)c2c1"
Marked response: 2.19%

Exam item: // lookup cytotoxicity at 70.5 h for "Cc1cc(NS(=O)(=O)c2ccc(C(=O)O)cc2F)ccc1F"
Marked response: -10.7%

Exam item: // lookup cytotoxicity at 70.5 h for Cc1cccc(C(=O)N2CCCSCC2CN2CCCC2)c1 (configuration not stated)
Marked response: -0.415%

Exam item: // lookup cytotoxicity at 70.5 h for "Cc1cc(NCc2ccco2)nc2[nH]nc(N)c12"
Marked response: -3.79%

Exam item: // lookup cytotoxicity at 70.5 h for "Cc1nc2c(c(NC(C)C)n1)CCN(C(=O)CCO)CC2"
Marked response: -14.4%

Exam item: // lookup cytotoxicity at 70.5 h for "CN(C)c1ccc(C(=O)N2CCN(CC(C)(C)O)CC2)nn1"
Marked response: -2.1%

Exam item: // lookup cytotoxicity at 70.5 h for "COc1ccccc1OCC(=O)NS(=O)(=O)c1ccc(Br)s1"
Marked response: -4.66%

Exam item: // lookup cytotoxicity at 70.5 h for CN(Cc1cnn(-c2ccccc2)n1)CC1CCCN1c1cccnn1 (configuration not stated)
Marked response: 4.15%

Exam item: // lookup cytotoxicity at 70.5 h for "CC(=O)NCCNC(=O)c1nc(C2CC2)n(-c2ccccc2Cl)n1"
Marked response: -13.6%

Exam item: // lookup cytotoxicity at 70.5 h for "N[C@H]1CN(S(=O)(=O)N2CCCCCC2)C[C@@H]1c1ccccc1"
Marked response: 20%

---

Assay: Human HepG2 cell viability assay in 384 well format
Assay type: toxicity, cell-based
Design: dose 125 nL, time 70.5 hour; concentration not given beside the values
Details: HepG2 cells, read-out: Inhibition
Exercise: state measured cytotoxicity at 70.5 h for each of the compounds provided.
Write the answer as a number in %, unit excluded.

Exam item: // lookup cytotoxicity at 70.5 h for "Cc1ccc(OCC(=O)NS(=O)(=O)c2c(C)noc2C)cc1C"
Marked response: 25

Exam item: // lookup cytotoxicity at 70.5 h for "OC[C@H]1CN(C2Cc3ccccc3C2)C[C@H]1CN1CCC(O)CC1"
Marked response: -7.74

Exam item: // lookup cytotoxicity at 70.5 h for Cc1ccc(C(=O)N2CCC3(CC2)COC(COc2ccccn2)C3)o1 (stereo unspecified)
Marked response: -4.24

Exam item: // lookup cytotoxicity at 70.5 h for "Cc1nc(N2CCN(C)CC2)ncc1C(=O)N1CCN(C)CC1"
Marked response: -4.76

Exam item: // lookup cytotoxicity at 70.5 h for COc1cccc(C(=O)N2CCOC3(CCCN(C(C)=O)C3)C2)c1 (stereo unspecified)
Marked response: -16.1

Exam item: // lookup cytotoxicity at 70.5 h for "CC(=O)N1CCN(CCNc2snc(Cl)c2C#N)CC1"
Marked response: -5.16

---

Test: Human HepG2 cell viability assay in 384 well format
Format: toxicity, cell-based
Design: dose 125 nL, time 70.5 hour; concentration not given beside the values
Settings: HepG2 cells, read-out: Inhibition
readout-name: cytotoxicity at 70.5 h (%)
Write the answer as a number in %, unit excluded.

Exam item: // lookup cytotoxicity at 70.5 h for "COCCC(=O)N1C[C@@H](c2ccc(F)c(F)c2)[C@@]2(CCCC(=O)N2)C1"
Marked response: -1.65

Exam item: // lookup cytotoxicity at 70.5 h for "CCNC(=O)[C@@H]1CCCN1C1(C(=O)NC)CCCCC1"
Marked response: 4.64

Exam item: // lookup cytotoxicity at 70.5 h for Cc1n[nH]c2c1C(c1ccc(Br)cc1)SCC(=O)N2 (stereo unspecified)
Marked response: -8.1

Exam item: // lookup cytotoxicity at 70.5 h for COc1cccc(CN2CC(O)CN(C(=O)C(C)(C)C)CC2=O)c1OC (stereo unspecified)
Marked response: 50.4

Exam item: // lookup cytotoxicity at 70.5 h for "Cn1nc2c(cc1=O)CN(c1ncnc3ccsc13)CC2"
Marked response: 3.58

Exam item: // lookup cytotoxicity at 70.5 h for "Cc1ccc(C(=O)NS(=O)(=O)c2c(Cl)cccc2Cl)c(=O)[nH]1"
Marked response: -5.05

---

Assay: Human HepG2 cell viability assay in 384 well format
Assay type: toxicity, cell-based
Parameters: dose 125 nL, time 70.5 hour; concentration not given beside the values
Details: HepG2 cells, read-out: Inhibition
Exercise: state measured cytotoxicity at 70.5 h for each of the compounds provided.
Write the answer as a number in %, unit excluded.

Exam item: // lookup cytotoxicity at 70.5 h for "Clc1cc(N2CCN(C3CCOCC3)CC2)nc2[nH]ccc12"
Marked response: -0.399

Exam item: // lookup cytotoxicity at 70.5 h for "O=C1CCN(CCCS(=O)(=O)c2ccc(Cl)cc2)CCN1"
Marked response: -4.67

Exam item: // lookup cytotoxicity at 70.5 h for "CC(=O)NCc1ccc(-n2ccnc2C)nc1"
Marked response: -14.4

Exam item: // lookup cytotoxicity at 70.5 h for "CC(=O)NCC(=O)N1CCN(CC2CC2)c2ncccc2C1"
Marked response: -9.1

Exam item: // lookup cytotoxicity at 70.5 h for Cc1nc(CN2CCC(N(C)Cc3noc(C(C)C)n3)C2)cs1 (stereo unspecified)
Marked response: 33.4

Exam item: // lookup cytotoxicity at 70.5 h for Cn1cc(CNCC(c2ccc(Cl)cc2)n2cccn2)cn1 (stereo unspecified)
Marked response: -5.62

---

Assay: Human HepG2 cell viability assay in 384 well format
Type: toxicity, cell-based
Design: dose 125 nL, time 70.5 hour; concentration not given beside the values
Conditions: HepG2 cells, read-out: Inhibition
readout-name: cytotoxicity at 70.5 h (%)
Write the answer as a number in %, unit excluded.

Exam item: // lookup cytotoxicity at 70.5 h for O=C(c1ccncc1)N1CCCC1c1cccc(Br)c1 (stereo unspecified)
Marked response: 21.6

Exam item: // lookup cytotoxicity at 70.5 h for O=C(NCc1cc[nH]n1)NCC(O)c1ccccc1F (stereo unspecified)
Marked response: 0.0915

Exam item: // lookup cytotoxicity at 70.5 h for Cc1nc(CN2CCCC2c2c(C)nn(C)c2Cl)no1 (stereo unspecified)
Marked response: -1.31

Exam item: // lookup cytotoxicity at 70.5 h for "CS(=O)(=O)N1CCC(CNc2c(Cl)cccc2C#N)CC1"
Marked response: -1.91

Exam item: // lookup cytotoxicity at 70.5 h for "CC(C)CN1CCOC[C@H](Oc2ccc(S(C)(=O)=O)cc2)C1"
Marked response: 13.8

Exam item: // lookup cytotoxicity at 70.5 h for Cc1ccc(CNC(=O)CN2CCOC(Cn3cncn3)C2)s1 (stereo unspecified)
Marked response: -2.32

---

Experiment: Human HepG2 cell viability assay in 384 well format
Type: toxicity, cell-based
Design: dose 125 nL, time 70.5 hour; concentration not given beside the values
Settings: HepG2 cells, read-out: Inhibition
readout-name: cytotoxicity at 70.5 h (%)
Write the answer as a number in %, unit excluded.

Exam item: // lookup cytotoxicity at 70.5 h for "OCC1CCN(Cc2cc3c(cc2Br)OCCO3)CC1"
Marked response: 17.4

Exam item: // lookup cytotoxicity at 70.5 h for Cc1nc(C2CCCN(C(=O)c3ccc(S(C)(=O)=O)cc3)C2)no1 (stereo not drawn)
Marked response: -6.59

Exam item: // lookup cytotoxicity at 70.5 h for "CC(C)(C)n1ncc2c(=O)[nH]c(NC3CC=CC3)nc21"
Marked response: 0.3

Exam item: // lookup cytotoxicity at 70.5 h for "CCc1noc(CN(CCc2ccccc2)C2CCN(C)CC2)n1"
Marked response: 25.9

Exam item: // lookup cytotoxicity at 70.5 h for "O=C(CS(=O)(=O)Cc1csc(-c2ccc(F)cc2)n1)NCC1CC1"
Marked response: -6.8

Exam item: // lookup cytotoxicity at 70.5 h for CN(C)c1ccc(C(=O)N2CCCCC2CC(N)=O)c(F)c1 (stereo not drawn)
Marked response: -1.41

Exam item: // lookup cytotoxicity at 70.5 h for O=C(c1ccccc1F)N1CCC2(CC1)CC(N1CCCC1)CO2 (stereo not drawn)
Marked response: -7.88

Exam item: // lookup cytotoxicity at 70.5 h for Cc1cccc(C2(C(=O)NCC3CN(C)CCO3)CC2)c1 (stereo not drawn)
Marked response: 2.72

Exam item: // lookup cytotoxicity at 70.5 h for "CCOC(=O)c1nc(COc2c(C)occc2=O)no1"
Marked response: -20.5

Exam item: // lookup cytotoxicity at 70.5 h for "CCOc1ccc(Cc2c(O)nc(SC)n(-c3ccccc3)c2=O)cc1"
Marked response: -2.28

Exam item: // lookup cytotoxicity at 70.5 h for CCOCCN1CCN(CC(=O)N2CCCC2)CC1CC (stereo not drawn)
Marked response: -4.43

Exam item: // lookup cytotoxicity at 70.5 h for CCS(=O)(=O)N1CCCC2(CCCN2C(=O)c2cscn2)C1 (stereo not drawn)
Marked response: -0.54

Exam item: // lookup cytotoxicity at 70.5 h for "C[C@]1(O)CCN(Cc2cncs2)C[C@@H]1Oc1cccc(F)c1"
Marked response: -0.0777

Exam item: // lookup cytotoxicity at 70.5 h for "Cc1noc([C@@H]2C[C@H]3CN(CC4CCOCC4)C[C@H]3O2)n1"
Marked response: 14.1

Exam item: // lookup cytotoxicity at 70.5 h for "Cc1ccc(C(=O)NCc2ccnc(N(C)C)c2)c(C)c1"
Marked response: 1.03

Exam item: // lookup cytotoxicity at 70.5 h for "CC(=O)N1CCC(NC2(Cc3cc(C(C)(C)O)on3)COC2)CC1"
Marked response: -7.16

Exam item: // lookup cytotoxicity at 70.5 h for O=C1N(CCO)CCCC12CCN(Cc1nnc(C3CC3)o1)C2 (stereo not drawn)
Marked response: 0.803

Exam item: // lookup cytotoxicity at 70.5 h for Cc1cccc(N2CCC(NC(C)c3cccs3)CC2)n1 (stereo not drawn)
Marked response: 10.3

Exam item: // lookup cytotoxicity at 70.5 h for "Cc1occc1C(=O)N1C[C@@H]2CCCO[C@@H]2[C@H](N(C)Cc2ccco2)C1"
Marked response: -0.88

Exam item: // lookup cytotoxicity at 70.5 h for CN(C)CC1CN(Cc2c(Cl)ccc3cccnc23)CCO1 (stereo not drawn)
Marked response: -4.72

Exam item: // lookup cytotoxicity at 70.5 h for "Fc1ccccc1-c1nc(CNCCn2cccn2)cs1"
Marked response: -3.88

Exam item: // lookup cytotoxicity at 70.5 h for Cn1cc2c(n1)C(CNC1CCOCC1)OCC2 (stereo not drawn)
Marked response: -5.41

Exam item: // lookup cytotoxicity at 70.5 h for O=C(CCNC(=O)N1CCC(c2ccccc2)C1)N1CCCCC1 (stereo not drawn)
Marked response: -13

Exam item: // lookup cytotoxicity at 70.5 h for "CN(Cc1ccccn1)C1CC2(CCN(Cc3cccnc3)CC2)C1"
Marked response: 5.08

Exam item: // lookup cytotoxicity at 70.5 h for O=C(NCCOc1ccc(F)cc1)C1CCCN(C(=O)C2CC2)C1 (stereo not drawn)
Marked response: -17.7

Exam item: // lookup cytotoxicity at 70.5 h for "O=S(=O)(C1CC1)N1CCCn2cnc(COc3cccnc3)c2C1"
Marked response: -2.62

Exam item: // lookup cytotoxicity at 70.5 h for "Cc1nn(C)c(C)c1C(=O)NCc1ccnc(OCC(F)(F)F)c1"
Marked response: -4.39

Exam item: // lookup cytotoxicity at 70.5 h for "Cc1cnn(CCNCCCOc2ccccc2)c1"
Marked response: -7.1

Exam item: // lookup cytotoxicity at 70.5 h for "CN(CCNC(=O)c1cccnc1)S(C)(=O)=O"
Marked response: -5.32

Exam item: // lookup cytotoxicity at 70.5 h for "N#Cc1cccc(NC(=O)N(CC(F)F)C2CC2)c1"
Marked response: -2.73

Exam item: // lookup cytotoxicity at 70.5 h for Cc1ccnc(CC(C)N(C)c2cc(CCN)nc(C)n2)c1 (stereo not drawn)
Marked response: -6.01

Exam item: // lookup cytotoxicity at 70.5 h for Cc1ccoc1C(=O)NC(CC(C)C)C(=O)N1CCC(CO)CC1 (stereo not drawn)
Marked response: 27.4

Exam item: // lookup cytotoxicity at 70.5 h for "O=C1CCC(=O)N1c1nn(Cc2ccccc2Cl)cc1Cl"
Marked response: -0.484

Exam item: // lookup cytotoxicity at 70.5 h for "CCOCC(=O)NCCc1nc(C2CC2)cc(C(F)(F)F)n1"
Marked response: -4.83

Exam item: // lookup cytotoxicity at 70.5 h for "CC(=O)N1CCC(c2nccnc2-c2ccc(F)cc2)CC1"
Marked response: -0.029

Exam item: // lookup cytotoxicity at 70.5 h for Cc1cc(C)n(CC2CCCN2CC(=O)N(C)Cc2cnn(C)c2)n1 (stereo not drawn)
Marked response: -9.95

Exam item: // lookup cytotoxicity at 70.5 h for "CN(C(=O)C1CCOCC1)[C@@H]1CCC[C@@H](N2CCCC2)[C@@H]1O"
Marked response: -3.82

Exam item: // lookup cytotoxicity at 70.5 h for "CCOc1ccc2[nH]c3c(N(C)CC4OCCO4)ncnc3c2c1"
Marked response: -21.1

Exam item: // lookup cytotoxicity at 70.5 h for O=S(=O)(NCC1(O)CCOc2ccccc21)c1ccc(Br)s1 (stereo not drawn)
Marked response: 3.29

Exam item: // lookup cytotoxicity at 70.5 h for "COC(=O)N1CCCN(C(=O)NCc2ccc(Cl)s2)CC1"
Marked response: 10.1

Exam item: // lookup cytotoxicity at 70.5 h for "CN(Cc1ccc2c(c1)OCO2)Cc1cscn1"
Marked response: 10.1

Exam item: // lookup cytotoxicity at 70.5 h for CC(NC(=O)CCOc1cccc(F)c1)c1nnc2n1CCC2 (stereo not drawn)
Marked response: -2.58

Exam item: // lookup cytotoxicity at 70.5 h for CN(Cc1ccccn1)C(C(=O)O)c1ccc2c(c1)OCO2 (stereo not drawn)
Marked response: -2.22

Exam item: // lookup cytotoxicity at 70.5 h for "Cc1cccc(CNC2(CCO)CCOCC2)c1C"
Marked response: -2.52

Exam item: // lookup cytotoxicity at 70.5 h for "Cc1cc(Br)ccc1C(=O)Nc1c(C(N)=O)n[nH]c1C"
Marked response: -9.24

Exam item: // lookup cytotoxicity at 70.5 h for COc1cccc(CN2CCC(c3nnc(-c4cnc(C)cn4)o3)C2)c1 (stereo not drawn)
Marked response: -13.5

Exam item: // lookup cytotoxicity at 70.5 h for COc1ccc(C2CC(=O)Oc3cc(C)[nH]c(=O)c32)cc1 (stereo not drawn)
Marked response: -2.66

Exam item: // lookup cytotoxicity at 70.5 h for "O=C(NCCc1cccnc1)NCCc1cccs1"
Marked response: 2.09
